Measured values drawn from patent US20180009889A1 for this set.

# measurementTarget: Human Notch3-Gal4-VP16 (human)
# assayComment: cell-based or functional assay
quantityName: IC50, Jagged1 co-culture Notch3 reporter gene assay (pM)
The reply should be a number in pM, with the unit left off.

Consider the binder 20351 (antibody, human IgG1, kappa, V domains shown) VH: QVQLVQSGAEVKKPGSSVKVSCKASGGTFSSYTISWVRQAPGQGLEWMGWIKPRYGAAMYAQKFQGRVTITADESTSTAYMELSSLRSEDTAVYYCARGSFWFGYWGQGTLVTVSS VL: DIQMTQSPSSLSASVGDRVTITCRASQGINNYLNWYQQKPGKAPKLLIYDASKLQSGVPSRFSGSGSGTDFTLTISSLQPEDFATYYCQQYLQYPMTFGQGTKVEIKR . State its measured IC50, Jagged1 co-culture Notch3 reporter gene assay.
800

Fill in reported IC50, Jagged1 co-culture Notch3 reporter gene assay for this entry: 20345 (antibody, human IgG1, kappa, V domains shown) VH: QVQLVQSGAEVKKPGSSVKVSCKASGGTFSSYTISWVRQAPGQGLEWMGWIKPKLGMAHYAQKFQGRVTITADESTSTAYMELSSLRSEDTAVYYCARGSFWFGYWGQGTLVTVSS VL: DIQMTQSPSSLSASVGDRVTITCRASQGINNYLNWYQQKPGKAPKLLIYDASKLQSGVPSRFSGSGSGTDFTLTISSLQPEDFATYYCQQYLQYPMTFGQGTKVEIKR
400
